Each entry below carries its reported ncRNA array expression, patient 29.
- Test system: ncRNAs (SEQ ID NO 28-89)
- protocol.summary: ncRNA arrays of melanocytes, keratinocytes, normal skin, melanoma cell lines and patient samples
- Parameters: species or system human
- test.conditions: melanoma patient 29 sample compared to normal skin
I'd appreciate a reply containing only the number, no unit.

Recorded results for 2 substances are shown here.
{"substance": "SEQ ID NO 31 (TTGCTTTTGTATTTGTAATTTTATGACATTTCGAAGTTTCTGTGTCTTAACTCTTTTTAA; listed as DNA, chemistry not given here; listed as Homo sapiens)", "ncRNA array expression, patient 29": 2.949}
{"substance": "SEQ ID NO 75 (CAAGTGGGAAGAAAAAGAGCCCTACGTGGTGACATTCTGGAAGGATATCATGGATGATTG; listed as DNA, chemistry not given here; listed as Homo sapiens)", "ncRNA array expression, patient 29": 2.221}

Now for a further substance.
I'm curious: which ncRNA array expression, patient 29 was measured for SEQ ID NO 35 (GTTTCCATTGAAGAATATTACGCTCGGGGACAAGCCAGGTGCACGACCAAAAATTTAAAA; DNA, backbone and methylation of C not given here; listed as Homo sapiens) tested on ncRNAs (SEQ ID NO 28-89)?
3.127

---

- Test system: ncRNAs (SEQ ID NO 28-89)
- protocol.summary: ncRNA arrays of melanocytes, keratinocytes, normal skin, melanoma cell lines and patient samples
- Set-up: species or system human
- test.conditions: melanoma patient 10 sample compared to normal skin
// bucketize ncRNA array expression, patient 10: low band (below 0.2), middle band (0.2 to below 2), high band (2 or more)

{"substance": "SEQ ID NO 83 (TCAGTTTGATGATTGGGCTAGGGAATGAAGCTTTGCCACTTAGGAGATAAACCCCATAAC; listed as DNA, chemistry not given here; listed as Homo sapiens)", "classification": "low band"}

For SEQ ID NO 29 (TTAAATACATGTTTCTAATATTTTAGTGTTTTGTATTTAGGTTATTTATTCTTTGTATCT; DNA, backbone and methylation of C not given here; listed as Homo sapiens) , which ncRNA array expression, patient 10 bin applies?
high band

For SEQ ID NO 72 (AATTACATATATTTAGCAGGATTTTTATTTGCCGTGATATATAGGATAATTTAGTCTTTG; listed as DNA, chemistry not given here; listed as Homo sapiens) , which ncRNA array expression, patient 10 bin applies?
high band

For SEQ ID NO 30 (ATTCCAAGGCCTATTAAAATTTCTGAGCATTGCCCATTTCTTTTGCTTTATCTGTAGGAC; DNA, backbone and methylation of C not given here; listed as Homo sapiens) , which ncRNA array expression, patient 10 bin applies?
high band

For SEQ ID NO 54 (TTTTTTTTCTTGTCCTATTACAACATTTTATAACCTTATGAATCAATGGATACTTTTATT; listed as DNA, chemistry not given here; listed as Homo sapiens) , which ncRNA array expression, patient 10 bin applies?
middle band

For SEQ ID NO 50 (GTTATTATAACCAATGCAGACTTTAAAATCCCACCTGGACATCGGGTGAGAGGAGGAGGG; listed as DNA, chemistry not given here; listed as Homo sapiens) , which ncRNA array expression, patient 10 bin applies?
low band

For SEQ ID NO 79 (GTGTGTACTGATGTCAAAGACCAAATGGATGCCCCTGTGGCCAACAGTACCTTGTTAAAC; listed as DNA, chemistry not given here; listed as Homo sapiens) , which ncRNA array expression, patient 10 bin applies?
low band

For SEQ ID NO 45 (ATTTAGAGAACATTTAAATCTGTAAGGAAGAAAATAATAACGACTCACAATTACATCATT; listed as DNA, chemistry not given here; listed as Homo sapiens) , which ncRNA array expression, patient 10 bin applies?
middle band

For SEQ ID NO 66 (TCCTTTTTATCTTGCACTCAGATGGTATTTTTAGAGATGTTTCTTCAATCAAAACAAGAT; listed as DNA, chemistry not given here; listed as Homo sapiens) , which ncRNA array expression, patient 10 bin applies?
middle band

---

- Test system: ncRNAs (SEQ ID NO 28-89)
- protocol.summary: ncRNA arrays of melanocytes, keratinocytes, normal skin, melanoma cell lines and patient samples
- Design: species or system human
- test.conditions: melanoma patient 21 sample compared to normal skin
Each entry below carries its reported ncRNA array expression, patient 21.

Recorded results for 3 substances are shown here.
{"substance": "SEQ ID NO 83 (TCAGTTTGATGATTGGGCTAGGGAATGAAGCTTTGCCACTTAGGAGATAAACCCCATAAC; listed as DNA, chemistry not given here; listed as Homo sapiens)", "ncRNA array expression, patient 21": "−1.45"}
{"substance": "SEQ ID NO 74 (TATATTACAGGAGTTGTCTATACGATTATAGTACCTGATTCTTTGGACATATCATTGAAC; listed as DNA, chemistry not given here; listed as Homo sapiens)", "ncRNA array expression, patient 21": 1.569}
{"substance": "SEQ ID NO 60 (ACTAACAGCACTGGAGGGTGTAGTGTTTCCTACTTTATGGATGAGTGTACTGTGGGCTTC; listed as DNA, chemistry not given here; listed as Homo sapiens)", "ncRNA array expression, patient 21": 0.7491}

So what does the record say about ncRNA array expression, patient 21 for SEQ ID NO 55 (CCTCTCCCCTTCTTGCAAAAAATATTCTATATTCAAGTTTAGGAGAAAACAGAATACTTG; listed as DNA, chemistry not given here; listed as Homo sapiens) ?
−2.321

So what does the record say about ncRNA array expression, patient 21 for SEQ ID NO 44 (AGCCAACTCACGCTTAGGGAGAACTCATACCGCCTAAATATAAAGGCAATTATATATATA; listed as DNA, chemistry not given here; listed as Homo sapiens) ?
−1.7

So what does the record say about ncRNA array expression, patient 21 for SEQ ID NO 62 (AATCGTTAATATCATTGATATTAAGTAATTTCCCCACTCTGAGTGAATACTTTGATGATG; listed as DNA, chemistry not given here; listed as Homo sapiens) ?
0.6984

So what does the record say about ncRNA array expression, patient 21 for SEQ ID NO 87 (GGGATATTTTTAAGGGGAAGGGGAAGGATAGAGAGAAAGTGCAGGCAGGGCTGGGGTCTG; listed as DNA, chemistry not given here; listed as Homo sapiens) ?
−2.079

So what does the record say about ncRNA array expression, patient 21 for SEQ ID NO 46 (CTATTGGAGTGCATATAAATTCTTGATAGCACCAGTTCTCAAATATGAGGTGTTAAAAAC; listed as DNA, chemistry not given here; listed as Homo sapiens) ?
0.7531

So what does the record say about ncRNA array expression, patient 21 for SEQ ID NO 71 (AAAATTCCAAGAGGGCCTTTTCGAATAGACGCATGAACGGTGTTTGTGTCTGGATCGTCC; listed as DNA, chemistry not given here; listed as Homo sapiens) ?
1.245

So what does the record say about ncRNA array expression, patient 21 for SEQ ID NO 76 (TGTTTCTAATGCATACTGTGAAAGGAAAAAAAATCACAGTTATCCACCTTCTCAGGGCCT; listed as DNA, chemistry not given here; listed as Homo sapiens) ?
−1.216

---

- Tested on: ncRNAs (SEQ ID NO 28-89)
- protocol.summary: ncRNA arrays of melanocytes, keratinocytes, normal skin, melanoma cell lines and patient samples
- Set-up: species or system human
- test.conditions: melanoma patient 27 sample compared to normal skin
Label scheme for ncRNA array expression, patient 27: lower than 2 is 0 (no), 2 and above is 1 (yes).

Would you please look over these solved cases?
{"substance": "SEQ ID NO 80 (CACACAGCCCAGTCTGCCTGTGATGGTAATATAAATCAAACCAGGGACCCAAGAGCCCAG; listed as DNA, chemistry not given here; listed as Homo sapiens)", "classification": "0 (no)"}
{"substance": "SEQ ID NO 82 (GAAGTCAGAAACTAAAGTTCCCTTCTAAGACAAAATCCTGCTTTGGAGAAAAAAAAAAAT; listed as DNA, chemistry not given here; listed as Homo sapiens)", "classification": "0 (no)"}
{"substance": "SEQ ID NO 33 (TATTGAATGTACACAAGTAATGATGGAGTTTGATTATATGGTTCATTTTCATTTATCCTA; DNA, backbone and methylation of C not given here; listed as Homo sapiens)", "classification": "1 (yes)"}
{"substance": "SEQ ID NO 49 (CGATGGCTTGTCATTGTCCCCTGTCCTGGAACAATAAAGCAAGTGCCTTGTGGTCTCACT; listed as DNA, chemistry not given here; listed as Homo sapiens)", "classification": "0 (no)"}

Please find the next substance below.
Could you verify whether the entry SEQ ID NO 72 (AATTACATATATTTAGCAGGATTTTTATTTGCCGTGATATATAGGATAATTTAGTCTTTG; listed as DNA, chemistry not given here; listed as Homo sapiens) shows ncRNA array expression, patient 27 of no less than 2?
1 (yes)
